Ref: the supplement of paper PMC10567573

Reported protein stability index by item:
B1: WDFY2 (parent)
chain: FWNFKQMWDSKKIGLRQHHCRKCG

variants of: B1; experiment: protein stability index of a GFP-peptide fusion (GPS, HEK-293T) (PSI 1-6); higher = more stable; settings: c terminus: a fixed tail appended;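 note: lentivirally expressed fusions sorted by FACS into six bins by GFP to DsRed ratio, PSI derived from sequencing read proportions per bin multiplied by bin number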
Write the value as a bare number.

So, Q17P ? Its protein stability index was 2.52
